# STUDY_SYSTEM: CsrA-His6 (Escherichia coli, UniProt P69913 1-61)
# Sequence (P69913 whole entry): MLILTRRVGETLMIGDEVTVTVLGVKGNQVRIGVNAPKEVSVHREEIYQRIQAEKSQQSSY
# TEST_DETAILS: EMSA; Hill coefficient 4.5; EMSA: 0.1 nM RNA, 10 mM MgCl2, 100 mM KCl, 32.5 ng yeast RNA, 20 mM DTT, 7.5% glycerol, 4 U SUPERasin, 30 min 37 C (pH not given); footprint: 2 nM RNA, 10 mM Tris-HCl pH 7.5, 10 mM MgCl2, 100 mM KCl, yeast RNA, acetylated BSA, 37 C
# MEASUREMENT_CONTEXT: protein: recombinant; tags: His6 (C-terminal by name); chain copies: 2; label: 5'-32P; hairpin (mFold)
OBSERVATION_TYPE: pKd
Please note pKd is a logarithmic value: minus log10 of concentration in mol/L. Answer with that number alone.

Using the record for GCGCAGGAAGAGCUGAAAAAGCUGGAAGCGC (structured_RNA) [yqjD BS2-BS3 fragment WT] , report its pKd. 7.05
